Molecular target: T1, human MSLN-R3-his protein (human, UniProt Q13421 487-598)
T1 construct: it is put last here; also called human MSLN-R3 protein; hMSLN-R3-his; not shown: His tag
T1 sequence (Q13421 495-606): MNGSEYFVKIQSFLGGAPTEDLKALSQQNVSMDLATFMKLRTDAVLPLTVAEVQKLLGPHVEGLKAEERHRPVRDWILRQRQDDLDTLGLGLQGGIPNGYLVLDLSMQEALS
Assay: ELISA on coated antigen, antibody 0.2 nM
recordedEndpoint: OD450 (OD)
Give the number; OD is assumed, so skip it.

Examples from the recorded data:
S009-F7.2.3 (antibody, human IgG1, kappa, V domains shown, Human-murine chimeric antibody, human IgG1 heavy and kappa light constant regions) VH: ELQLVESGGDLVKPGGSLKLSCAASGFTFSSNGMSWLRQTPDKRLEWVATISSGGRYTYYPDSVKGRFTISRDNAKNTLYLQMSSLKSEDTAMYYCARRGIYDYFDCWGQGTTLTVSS VL: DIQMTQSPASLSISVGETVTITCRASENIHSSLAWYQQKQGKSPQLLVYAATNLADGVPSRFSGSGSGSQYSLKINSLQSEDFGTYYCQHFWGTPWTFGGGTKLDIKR = 0.06
S009-F7.25.19 (antibody, human IgG1, kappa, V domains shown, Human-murine chimeric antibody, human IgG1 heavy and kappa light constant regions) VH: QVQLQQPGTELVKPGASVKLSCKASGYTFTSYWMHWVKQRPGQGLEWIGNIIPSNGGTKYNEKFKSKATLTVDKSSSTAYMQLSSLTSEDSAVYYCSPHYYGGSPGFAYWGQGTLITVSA VL: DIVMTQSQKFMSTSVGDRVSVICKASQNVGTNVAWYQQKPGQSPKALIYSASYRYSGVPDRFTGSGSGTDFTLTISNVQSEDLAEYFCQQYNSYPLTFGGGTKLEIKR = 2.6
Tab106 (YP218, hIgG1) (antibody, V domains shown, Control antibody; YP218 VH and VL recombined into human IgG1 CH and CL expression vectors; also called YP218 human IgG1 antibody) VH: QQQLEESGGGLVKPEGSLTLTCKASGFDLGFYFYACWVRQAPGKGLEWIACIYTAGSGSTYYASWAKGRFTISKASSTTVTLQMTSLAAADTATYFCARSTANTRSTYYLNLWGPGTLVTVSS VL: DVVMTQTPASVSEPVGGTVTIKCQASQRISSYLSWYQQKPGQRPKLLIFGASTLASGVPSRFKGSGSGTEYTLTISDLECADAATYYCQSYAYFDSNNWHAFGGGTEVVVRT = 1.9

Data request: // lookup OD450 for S009-F7.61.21 (antibody, human IgG1, kappa, V domains shown, Human-murine chimeric antibody, human IgG1 heavy and kappa light constant regions) VH: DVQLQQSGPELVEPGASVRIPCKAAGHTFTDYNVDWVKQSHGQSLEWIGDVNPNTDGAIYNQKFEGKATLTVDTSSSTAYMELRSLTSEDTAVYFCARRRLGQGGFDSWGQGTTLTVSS VL: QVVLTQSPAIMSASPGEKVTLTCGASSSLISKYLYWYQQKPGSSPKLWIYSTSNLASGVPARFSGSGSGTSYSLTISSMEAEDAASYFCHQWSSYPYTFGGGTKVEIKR
Data returned: 0.8
